Each entry below carries its reported Kd.
biological target: WDR5 (Δ23, residues 24-334) (Homo sapiens); experiment: biochemical; settings: Kd (M), FPA-based binding affinity at the WDR5 WIN site; IC50 converted to Kd by modified Cheng-Prusoff equation; average of two experiments
Answer with the value and then the unit.

molecule="COc1cccc(C(=O)NCc2cc(-c3cn4c(n3)CCC4)ccc2-c2ccccc2)c1 [B126]" readout_label=Kd test_value="5.7e-08 M"
molecule="O=C(Cc1ccc(F)c(Cl)c1)NCc1cc(-c2cn3c(n2)CCC3)cnc1OC1CCC1 [B224]" readout_label=Kd test_value="6.1e-08 M"
molecule="COc1ccc(C(=O)N(Cc2cccc(-c3cn4c(n3)CCC4)c2)C(C)c2cccc(Cl)c2)cc1OC (centres unmarked) [B68]" readout_label=Kd test_value="3.72e-06 M"
molecule="O=C(CC1CCNCC1)NCc1cccc(-c2cn3c(n2)CCC3)c1 [B150]" readout_label=Kd test_value="1e-05 M"

Now examine the next entry.
Please report the recorded Kd for Cc1ccc(C(=O)NCc2cccc(-c3cn4c(n3)CCC4)c2)cc1C(F)(F)F [B130] .
9.72e-07 M
